tested on: KBM5-T315I (human chronic myelogenous leukemia); assay: MTT cancer cell growth inhibition; type: cell-based; details: Homo sapiens, 72 h, MTT, 72 hours incubation, KBM5-T315I cells; read-out: GI50 KBM5-T315I
Rule: GI50 below 50 nM gives yes. Equal to or above 50 nM gives no.

These recorded examples may help you get a feel for the data.
Exercise: Consider C=C1NC(=O)c2nc(ccc2SC)CNC(=O)C[C@@H](/C=C/CCSC(C)=O)OC(=O)[C@H](C(C)C)NC1=O . Does its GI50 lie strictly below 50 nM?
Solution: yes

Exercise: Please determine if C/C=C1\NC(=O)c2ccc(SC)c(n2)CNC(=O)C[C@@H](/C=C/CCSC(=O)CCCCC)OC(=O)[C@H](C(C)C)NC1=O is below 50 nM in terms of GI50.
Solution: no

Exercise: In the record for C/C=C1\NC(=O)c2nc(ccc2SC)CNC(=O)C[C@@H](/C=C/CCSC(C)=O)OC(=O)[C@H](C)NC1=O , is GI50 less than 50 nM?
Solution: no

Exercise: Strictly below 50 nM: is that where GI50 of C/C=C1\NC(=O)c2cc(SC)cc(n2)CNC(=O)C[C@@H](/C=C/CCSC(C)=O)OC(=O)[C@H](C(C)C)NC1=O sits?
Solution: no

Others:
Exercise: Answer whether the molecule C/C=C1\NC(=O)c2nc(ccc2SC)CNC(=O)C[C@@H](/C=C/CCSC(=O)CCC)OC(=O)[C@H](C(C)C)NC1=O has GI50 strictly less than 50 nM
Solution: no

Exercise: For C/C=C1\NC(=O)c2nc(ccc2F)CNC(=O)C[C@@H](/C=C/CCSC(=O)CC)OC(=O)[C@H](C(C)C)NC1=O , is the recorded GI50 below the cut-off of 50 nM?
Solution: no

----------
Listed compounds paired with reported GI50
test system: PANC-1 (Pac-1, human pancreatic cancer cells); assay: MTT cancer cell growth inhibition; assay type: cell-based; conditions: Homo sapiens, PANC-1, 72 h, PANC-1 cells, MTT, 72 hours incubation; read-out: GI50 PAN
Numbers only; they are read as nM.

Illustrative cases are given below, each with its answer.
Recorded result, C/C=C1\NC(=O)c2cc(SC)cc(n2)CNC(=O)C[C@@H](/C=C/CCSC(C)=O)OC(=O)[C@H](C)NC1=O , GI50: 60

Form: compound = C/C=C1\NC(=O)c2ccc(SCC)c(n2)CNC(=O)C[C@@H](/C=C/CCSC(=O)CCCCCC)OC(=O)[C@H](C(C)C)NC1=O ; GI50 = 60

The recorded GI50 for C/C=C1\NC(=O)c2nc(ccc2SCC)CNC(=O)C[C@@H](/C=C/CCSC(=O)CCCCC)OC(=O)[C@H](C(C)C)NC1=O is 60

Documented GI50 of C=C1NC(=O)c2ccc(SC)c(n2)CNC(=O)C[C@@H](/C=C/CCSC(C)=O)OC(=O)[C@H](C(C)C)NC1=O : 20

Input C=C1NC(=O)c2cccc(n2)CNC(=O)C[C@@H](/C=C/CCSC(=O)CCCCCCC)OC(=O)[C@H](C(C)C)NC1=O . Output GI50: 770

// C/C=C1\NC(=O)c2ccc(SC)c(n2)CNC(=O)C[C@@H](/C=C/CCS)OC(=O)[C@H](C)NC1=O : GI50 value = 30

The recorded GI50 for entry C/C=C1\NC(=O)c2cc(SCC)cc(n2)CNC(=O)C[C@@H](/C=C/CCSC(=O)CCCCCC)OC(=O)[C@H](C(C)C)NC1=O equals 50

Reported GI50 for C/C=C1\NC(=O)c2cccc(n2)CNC(=O)C[C@@H](/C=C/CCSC(=O)CCCCCCC)OC(=O)[C@@H](C)NC1=O was 210

Reported GI50 ( C/C=C1\NC(=O)c2ccc(SC)c(n2)CNC(=O)C[C@@H](/C=C/CCSC(=O)CCCC)OC(=O)[C@H](C(C)C)NC1=O ) = 20

The reported value for C/C=C1\NC(=O)c2cc(SC)cc(n2)CNC(=O)C[C@@H](/C=C/CCSC(=O)CCCCCCC)OC(=O)[C@H](Cc2ccccc2)NC1=O in terms of GI50 is 60

---
Kindly note the recorded GI50 for C/C=C1\NC(=O)c2ccc(SC)c(n2)CNC(=O)C[C@@H](/C=C/CCSC(C)=O)OC(=O)[C@H](CCCCNC(=O)OCC2c3ccccc3-c3ccccc32)NC1=O , which is 40

GI50 recorded for this compound, C/C=C1\NC(=O)c2cccc(n2)CNC(=O)C[C@@H](/C=C/CCSC(=O)CCCCCCC)OC(=O)[C@H](c2ccc(O)cc2)NC1=O , is 70

GI50 measured on C/C=C1\NC(=O)c2cc(SC)cc(n2)CNC(=O)C[C@@H](/C=C/CCS)OC(=O)[C@H](C)NC1=O = 20

----------
tested on: Huh-7 (human hepatoma cells); experiment: MTT cancer cell growth inhibition; format: cell-based; settings: Homo sapiens, Huh-7, 72 h, MTT, 72 hours incubation, Huh-7 cells; read-out: GI50 Huh-7
This listing pairs compounds with measured GI50.
Give the value in nM but do not write nM after it.

// solved cases for GI50 follow
Reported GI50 of C/C=C1\NC(=O)c2cc(F)cc(n2)CNC(=O)C[C@@H](/C=C/CCSC(=O)CCCCCCC)OC(=O)[C@H](C(C)C)NC1=O [Example 31] : 19

Query C/C=C1\NC(=O)c2nc(ccc2SC)CNC(=O)C[C@@H](/C=C/CCSC(=O)CCCCCCC)OC(=O)[C@H](C(C)C)NC1=O [Compound 147] yields GI50 of 57

Memo: C/C=C1\NC(=O)c2ccc(SCC)c(n2)CNC(=O)C[C@@H](/C=C/CCSC(=O)CCCCCC)OC(=O)[C@H](C(C)C)NC1=O [Compound 252] , reported GI50: 26

Recorded GI50 (compound C/C=C1\NC(=O)c2nc(ccc2SC)CNC(=O)C[C@@H](/C=C/CCSC(=O)CCCCCCC)OC(=O)[C@H](CC)NC1=O [Compound 171] ): 53

GI50 reading for C/C=C1\NC(=O)c2cc(F)cc(n2)CNC(=O)C[C@@H](/C=C/CCSC(C)=O)OC(=O)[C@H](C)NC1=O [Compound 64] : 46

Attention now shifts to the item below.
Summary for this compound, C/C=C1\NC(=O)c2cc(F)cc(n2)CNC(=O)C[C@@H](/C=C/CCSC(=O)CCC)OC(=O)[C@H](C(C)C)NC1=O [Compound 43] : GI50 is 36

----------
target: HDAC2 (Homo sapiens, UniProt Q92769)
Sequence (Q92769 whole entry, species assumed): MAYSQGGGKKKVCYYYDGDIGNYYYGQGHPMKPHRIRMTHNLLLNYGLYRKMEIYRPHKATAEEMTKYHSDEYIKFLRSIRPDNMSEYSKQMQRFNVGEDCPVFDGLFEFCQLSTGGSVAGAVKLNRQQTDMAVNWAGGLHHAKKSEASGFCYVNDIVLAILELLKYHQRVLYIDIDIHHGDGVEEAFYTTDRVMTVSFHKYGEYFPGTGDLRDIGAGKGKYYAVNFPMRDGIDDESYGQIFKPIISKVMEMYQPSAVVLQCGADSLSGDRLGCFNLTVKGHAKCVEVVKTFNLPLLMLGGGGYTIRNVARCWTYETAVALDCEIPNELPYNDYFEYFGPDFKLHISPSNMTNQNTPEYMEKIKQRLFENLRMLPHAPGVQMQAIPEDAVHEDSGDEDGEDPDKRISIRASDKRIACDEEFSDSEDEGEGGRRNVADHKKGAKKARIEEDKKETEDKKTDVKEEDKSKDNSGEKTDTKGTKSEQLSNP
Field: label. Allowed values: Fulfilled (IC50 < 30 nM) or Not fulfilled (IC50 >= 30 nM).

Exercise: Quick check: does CC(=O)SCC/C=C/[C@@H]1CC(=O)NCc2cccc(n2)C(=O)NC(=C(C)C)C(=O)N[C@@H](C(C)C)C(=O)O1 [Compound 20] have IC50 under 30 nM?
Solution: Not fulfilled

---
Exercise: Here's an entry: C/C=C1\NC(=O)c2nc(F)cc(n2)CNC(=O)C[C@@H](/C=C/CCSC(C)=O)OC(=O)[C@H](C(C)C)NC1=O [Compound 98] . Is its IC50 below 30 nM?
Solution: Fulfilled

Exercise: Problem: For the molecule C/C=C1\NC(=O)c2nc(ccc2F)CCNC(=O)C[C@@H](/C=C/CCSC(C)=O)OC(=O)[C@H](C(C)C)NC1=O [Compound 103] , is IC50 under 30 nM?
Solution: Fulfilled

Exercise: Consider the molecule C/C=C1\NC(=O)c2cc(F)cc(n2)CNC(=O)C[C@@H](/C=C/CCSC(C)=O)OC(=O)[C@H](CCCCNC(=O)OCC2c3ccccc3-c3ccccc32)NC1=O [Compound 76] . Is its IC50 strictly less than 30 nM?
Solution: Not fulfilled

Exercise: State whether 30 nM exceeds IC50 recorded for C/C=C1\NC(=O)c2cccc(n2)CNC(=O)C[C@@H](/C=C/CCS)OC(=O)[C@@H](C)NC1=O [Compound 145] .
Solution: Fulfilled

Exercise: Field: below-cutoff. Rule: recorded IC50 strictly less than 30 nM. Subject: C/C=C1\NC(=O)c2nc(ccc2SC)CNC(=O)C[C@@H](/C=C/CCSC(=O)CCCCCCC)OC(=O)[C@H](CC)NC1=O [Compound 171]
Solution: Not fulfilled

Exercise: Here's an entry: C/C=C1\NC(=O)c2cc(F)cc(n2)CNC(=O)C[C@@H](/C=C/CCSC(=O)CCCCCCC)OC(=O)[C@H](C)NC1=O [Compound 61] . Is its IC50 below 30 nM?
Solution: Not fulfilled

----------
target: HDAC1 (Homo sapiens); experiment: HDAC biochemical activity measurement (fluorescent substrate deacetylation);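 as to IC50 HDAC1: fluorogenic acetyl-lysine substrate (20 µM) deacetylated by HDAC1, then developer releases fluorophore read at 360 nm excitation and 460 nm emission, inhibitor incubated 30 min at 37 °C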; settings: HDAC1; 37° C. 30 minutes; read-out: IC50 HDAC1
Sequence (Q13547 whole entry, species assumed): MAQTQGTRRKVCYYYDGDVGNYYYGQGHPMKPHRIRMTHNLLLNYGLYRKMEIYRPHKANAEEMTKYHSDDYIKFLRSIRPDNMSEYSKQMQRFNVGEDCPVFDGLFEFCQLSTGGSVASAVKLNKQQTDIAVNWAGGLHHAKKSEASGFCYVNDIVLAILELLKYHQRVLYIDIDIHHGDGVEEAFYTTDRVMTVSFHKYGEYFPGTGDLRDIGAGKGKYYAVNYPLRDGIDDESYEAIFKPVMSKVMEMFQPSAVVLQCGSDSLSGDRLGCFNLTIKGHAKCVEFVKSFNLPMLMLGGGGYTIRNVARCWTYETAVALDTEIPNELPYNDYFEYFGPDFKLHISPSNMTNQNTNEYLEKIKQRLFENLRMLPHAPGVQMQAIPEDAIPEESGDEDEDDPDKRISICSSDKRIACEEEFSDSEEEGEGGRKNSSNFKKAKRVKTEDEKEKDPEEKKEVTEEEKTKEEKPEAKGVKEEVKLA
Threshold check on IC50: strictly below 40 nM is Met; on or above 40 nM is Not met.

Exercise: Criterion: IC50 strictly below 40 nM. Is it met by C/C=C1\NC(=O)c2cccc(n2)CNC(=O)C[C@@H](/C=C/CCSC(=O)CCCCCCC)OC(=O)[C@@H](C)NC1=O [Compound 236] ?
Solution: Not met

***
Exercise: Given C/C=C1\NC(=O)c2nc(ccc2F)CNC(=O)C[C@@H](/C=C/CCSC(C)=O)OC(=O)[C@H](Cc2cccc3ccccc23)NC1=O [Compound 78] , is recorded IC50 strictly lower than 40 nM?
Solution: Not met

Exercise: Threshold test, IC50 < 40 nM: C/C=C1\NC(=O)c2nc(ccc2F)CNC(=O)C[C@@H](/C=C/CCSC(=O)CCCCCC)OC(=O)[C@H](C(C)C)NC1=O [Compound 33]
Solution: Met

Exercise: Does C/C=C1\NC(=O)c2cc(F)cc(n2)CNC(=O)C[C@@H](/C=C/CCSC(C)=O)OC(=O)[C@H](CC)NC1=O [Compound 58] have IC50 strictly under 40 nM?
Solution: Met

Exercise: Strictly below 40 nM: is that where IC50 of C/C=C1\NC(=O)c2nc(ccc2F)CNC(=O)C[C@@H](/C=C/CCSC(=O)CC)OC(=O)[C@H](C(C)C)NC1=O [Example 45] sits?
Solution: Not met

Exercise: Criterion: IC50 strictly below 40 nM. Is it met by C/C=C1\NC(=O)c2cc(SC)cc(n2)CNC(=O)C[C@@H](/C=C/CCSC(=O)CCCCCC)OC(=O)[C@H](C(C)C)NC1=O [Compound 151] ?
Solution: Not met

Data origin: patent US10065990B2
